- Tested on: OVCAR8
- Protocol: drug sensitivity score (DSS2) on cancer cell count; higher = more sensitive; extreme values may be limits of the assay
- Measurement context: co-cultured fibroblast: BJHTERT; 72 h
Categorized via drug sensitivity score: bottom end (below 0.6 DSS), midrange (0.6 DSS to below 4 DSS), top end (4 DSS or more)

In: Hi, small favor: classify COc1ccc(Cn2ccc3ccc(C(=O)NO)cc32)cc1 by its drug sensitivity score when you get a moment.
Out: midrange

In: The entry to classify is COc1ccc(-c2nc(N3CCOCC3)c3sc(CN(C)c4ncc(C(=O)NO)cn4)cc3n2)cn1 [CUDC-907] ; which class holds it?
Out: top end

In: Just checking, what class would you give CCC(C)n1ncn(-c2ccc(N3CCN(c4ccc(OCC5COC(Cn6cncn6)(c6ccc(Cl)cc6Cl)O5)cc4)CC3)cc2)c1=O (stereo unspecified) [Itraconazole] here?
Out: midrange

In: Bin this entry: CCCCC(=O)OCC(=O)[C@]1(O)Cc2c(O)c3c(c(O)c2[C@@H](O[C@H]2C[C@H](NC(=O)C(F)(F)F)[C@H](O)[C@H](C)O2)C1)C(=O)c1c(OC)cccc1C3=O [Valrubicin]
Out: top end

In: Lab note: sort CN(C)CCOc1ccc(/C(=C(/CCCl)c2ccccc2)c2ccccc2)cc1 [Toremifene] into the matching drug sensitivity score band.
Out: midrange

In: Which category does the recorded drug sensitivity score put O[C@H]1CC[C@H](Nc2ncc3nc(Nc4c(F)cc(F)cc4F)n([C@H]4CCOC4)c3n2)CC1 [Tanzisertib] in?
Out: midrange

In: GET /class?item= Cc1nc2cccc(N)c2c(=O)n1C1CCC(=O)NC1=O (stereo unspecified) [CC122]
Out: bottom end

In: Record CCCCCCCCCCCCCCCCCCOP(=O)([O-])OC1CC[N+](C)(C)CC1 [Perifosine] — which class?
Out: bottom end

In: Given CCOCc1nc2c(N)nc3ccccc3c2n1CC(C)(C)O [Resiquimod] , name the class its drug sensitivity score places it in.
Out: bottom end

In: Hello team, could you let me know which band the following molecule falls into: COc1cc([C@@H]2c3cc4c(cc3[C@@H](O[C@@H]3O[C@@H]5CO[C@@H](c6cccs6)O[C@H]5[C@H](O)[C@H]3O)[C@H]3COC(=O)[C@H]23)OCO4)cc(OC)c1O [Teniposide]
Out: bottom end

In: # bin label for Cn1cncc1[C@@](N)(c1ccc(Cl)cc1)c1ccc2c(c1)c(-c1cccc(Cl)c1)cc(=O)n2C [Tipifarnib]
Out: top end

In: Would you mind sorting O=C(O)C1(C(=O)O)CCC1.[NH2-].[NH2-].[Pt+2] [Carboplatin] into the appropriate category?
Out: top end

In: Category of CCn1c(=O)c(-c2ccc(Cl)cc2Cl)cc2cnc(Nc3ccc(N4CCNCC4)c(F)c3)nc21 [FRAX486] :
Out: top end

In: Class? Entry: COc1cc2c(N3CCN(C(=O)Nc4ccc(OC(C)C)cc4)CC3)ncnc2cc1OCCCN1CCCCC1 [Tandutinib]
Out: bottom end

###

Provide the recorded drug sensitivity score for the entries that follow.
- System: OVCAR8
- Protocol: drug sensitivity score (DSS2) on cancer cell count; higher = more sensitive; extreme values may be limits of the assay
- Measurement context: co-cultured fibroblast: WI38; 72 h
Put your answer as a value accompanied by its unit after it.

In: Using the record for CC(C)(C)c1cc(NC(=O)Nc2ccc(Oc3ccnc4[nH]c(=O)cnc34)cc2F)n(-c2ccccc2)n1 , report its drug sensitivity score.
Out: 3.4 DSS

In: Reported drug sensitivity score for CCNc1nc(Nc2cc(F)c(C(=O)N3CCOCC3)cc2OC)ncc1C(F)(F)F : what is it?
Out: 0 DSS

In: I am curious: what drug sensitivity score value has been reported for CCn1c(-c2nonc2N)nc2c(C#CC(C)(C)O)ncc(OC[C@H]3CCCNC3)c21 ?
Out: 1.1 DSS

In: So what does the record say about drug sensitivity score for CS(=O)(=O)CCNCc1ccc(-c2ccc3ncnc(Nc4ccc(OCc5cccc(F)c5)c(Cl)c4)c3c2)o1 ?
Out: 0 DSS

Measured values drawn from the supplement of paper PMC12420376 for this set.
